- SYSTEM_NAME: Tyrosine-protein kinase FRK (Homo sapiens) (UniProt P42685);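 note: values are mean inhibition of PTK5 (FRK) kinase activity from the GSK PKIS screening set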
- Sequence (P42685 whole entry): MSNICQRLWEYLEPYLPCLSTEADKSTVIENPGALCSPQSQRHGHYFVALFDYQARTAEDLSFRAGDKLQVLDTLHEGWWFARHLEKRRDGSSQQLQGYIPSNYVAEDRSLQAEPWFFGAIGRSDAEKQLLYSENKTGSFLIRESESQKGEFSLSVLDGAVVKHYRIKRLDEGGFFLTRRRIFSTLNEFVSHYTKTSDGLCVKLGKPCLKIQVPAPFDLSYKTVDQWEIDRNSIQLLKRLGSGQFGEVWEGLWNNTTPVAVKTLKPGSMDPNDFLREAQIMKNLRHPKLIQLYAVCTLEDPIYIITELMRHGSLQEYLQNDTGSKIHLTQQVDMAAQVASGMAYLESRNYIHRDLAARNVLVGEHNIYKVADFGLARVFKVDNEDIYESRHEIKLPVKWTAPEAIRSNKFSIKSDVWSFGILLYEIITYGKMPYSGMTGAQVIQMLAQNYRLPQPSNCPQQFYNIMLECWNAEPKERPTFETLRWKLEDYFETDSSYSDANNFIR
- TEST_CONDITIONS: at 0.1 µM
ATTRIBUTE_MEASURED: inhibition (%)
Kindly answer with a numeric value in %, unit omitted.

// below: answered compounds
CN(C)c1cc2c(Nc3ccc4c(cnn4Cc4ccccc4)c3)ncnc2cn1 ... 1.92
N#Cc1c(NC(=O)c2ccccc2F)sc2c1CCCC2 ... -0.85
Nc1nccc(C#Cc2cncnc2Nc2ccc(OCc3cccc(F)c3)c(Cl)c2)n1 ... 2.59
NS(=O)(=O)c1ccc(NC=C2C(=O)Nc3ccc4ncsc4c32)cc1 ... 4.28
NS(=O)(=O)c1cccc(Nc2cc(-c3ccc(F)cc3)n[nH]2)c1 ... 1.05

Kindly review the next compound as well.
Sure, the documented inhibition for CCS(=O)(=O)c1ccc(OC)c(Nc2ncc(-c3cccc(OC)c3)o2)c1 is 4.05

----------
- SYSTEM_NAME: Serine/threonine-protein kinase PLK1 (Homo sapiens) (UniProt P53350);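 note: reported value is a mean PLK1 inhibition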
- Sequence (P53350 whole entry): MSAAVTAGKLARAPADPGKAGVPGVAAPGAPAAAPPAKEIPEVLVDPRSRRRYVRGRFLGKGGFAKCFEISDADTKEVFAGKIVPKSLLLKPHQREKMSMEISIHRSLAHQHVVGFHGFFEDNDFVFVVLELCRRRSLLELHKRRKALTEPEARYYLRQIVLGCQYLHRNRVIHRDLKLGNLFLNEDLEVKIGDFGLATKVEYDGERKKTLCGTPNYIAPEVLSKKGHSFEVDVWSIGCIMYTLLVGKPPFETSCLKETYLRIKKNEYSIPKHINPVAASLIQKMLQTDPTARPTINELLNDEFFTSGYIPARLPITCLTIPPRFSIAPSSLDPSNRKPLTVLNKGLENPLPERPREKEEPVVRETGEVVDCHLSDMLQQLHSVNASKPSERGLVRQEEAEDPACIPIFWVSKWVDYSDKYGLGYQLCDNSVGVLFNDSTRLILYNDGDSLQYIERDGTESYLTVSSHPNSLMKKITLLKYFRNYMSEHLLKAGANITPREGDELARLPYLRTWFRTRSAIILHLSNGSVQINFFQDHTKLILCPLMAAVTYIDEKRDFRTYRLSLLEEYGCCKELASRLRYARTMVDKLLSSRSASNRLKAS
- TEST_CONDITIONS: at 1 µM
ATTRIBUTE_MEASURED: inhibition (%)
Kindly answer with a numeric value in %, unit omitted.

// below: answered compounds
CCS(=O)(=O)c1ccc(OC)c(Nc2nccc(N(C)c3ccc4c(C)n[nH]c4c3)n2)c1 ... 8.94
NS(=O)(=O)c1ccc(Nc2cc(-c3cccc(O)c3)n[nH]2)cc1 ... 4.69
NC(=O)c1cccc(Nc2nccc(Nc3cccc(F)c3)n2)c1 ... 6.07

Sure, the documented inhibition for CCCN1CCCC(c2ccc(Nc3nc(Nc4cc(F)ccc4C(N)=O)c4cc[nH]c4n3)c(OC)c2)C1 (stereo not given) is 48.1

Sure, the documented inhibition for NS(=O)(=O)c1cccc(Nc2cc(-c3ccc(F)cc3)n[nH]2)c1 is 3.33

Sure, the documented inhibition for ON=C1CCc2cc(-c3nc(C4CCNCC4)[nH]c3-c3ccncc3)ccc21 is 0.96

Sure, the documented inhibition for N#Cc1cccc(Nc2nccc(-c3cnn4ncccc34)n2)c1 is 9.23

Sure, the documented inhibition for Cc1ccc(NC(=O)CC2CC2)cc1-c1ccc(C(=O)NCC2CC2)cc1 is 1.97

Sure, the documented inhibition for Cc1cc(O)cc(C)c1/C=C/c1cncc(C(=O)N(C)C)c1 is 3.62

Sure, the documented inhibition for CN(C)c1cc2c(Nc3ccc4c(cnn4Cc4ccccc4)c3)ncnc2cn1 is 3.09

----------
- SYSTEM_NAME: Serine/threonine-protein kinase SIK1 (Homo sapiens);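 note: mean inhibition value from the GSK PKIS profiling set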
- TEST_CONDITIONS: at 1 µM
Threshold check on inhibition: at or above 6% gives 1, strictly below gives -1.

Consider the worked cases shown below.
FC(F)(F)c1ccc(-c2nn3ncccc3c2-c2ccnc(Nc3ccc4c(c3)OCCO4)n2)cc1 ... -1
COC(=O)Nc1nc2cc(Oc3ccc(NC(=O)Nc4cccc(Br)c4)cc3)ccc2[nH]1 ... 1
CCn1c(-c2nonc2N)nc2c(C#CC(C)(C)O)nc(OCCNC)cc21 ... 1

Reported inhibition at or above 6%? Nc1ccc(C#Cc2cncnc2Nc2ccc(OCc3cccc(F)c3)c(Cl)c2)cc1 -1

Reported inhibition at or above 6%? Cc1ccc2c(c1)/C(=N/Nc1ccc(S(N)(=O)=O)cc1)C(=O)N2 -1

Reported inhibition at or above 6%? Oc1cccc(-c2nc(-c3ccccc3)[nH]c2-c2ccncc2)c1 1

----------
Entries and their measured inhibition follow.
- SYSTEM_NAME: Casein kinase II subunit alpha (Homo sapiens);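 note: reported value is the mean CK2 inhibition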
- TEST_CONDITIONS: at 1 µM
Kindly answer with a numeric value in %, unit omitted.

// below: answered compounds
Cc1cc(-c2ccccn2)cc(C)c1/C=C/c1cncc(-c2nn[nH]n2)c1 ... 6.35
COc1cccc(-n2nc(C)c3c(N/N=C(\C)c4ccncc4)ncnc32)c1 ... 6.88
NS(=O)(=O)c1cccc(Nc2cc(-c3ccc(F)cc3)n[nH]2)c1 ... 13.6
COC(=O)c1ccc2c(c1)C(=Cc1cc(Br)c(O)c(Br)c1)C(=O)N2 ... 47
NS(=O)(=O)c1ccc(-c2cc3ccncc3cc2OCc2ccccc2)cc1 ... 12.6

Sure, the documented inhibition for COc1cccc(-n2ncc3c(N/N=C/c4ccc(S(C)(=O)=O)cc4)ncnc32)c1 is 39.1

Sure, the documented inhibition for OCc1ccc(-c2nc(-c3ccccn3)c(-c3ccc4c(c3)OCO4)[nH]2)cc1 is -0.37

Sure, the documented inhibition for CC(C)c1ccc(Nc2nccc(-c3cnn4ncccc34)n2)cc1 is 43.4

Sure, the documented inhibition for Cc1cc(Cl)cc2c1NC(=O)C2=NNc1ccc(S(N)(=O)=O)cc1 is 8.79

Sure, the documented inhibition for CCS(=O)(=O)c1ccc(OC)c(Nc2nccc(N(C)c3ccc4c(C)n[nH]c4c3)n2)c1 is 7.45

----------
- SYSTEM_NAME: Mitogen-activated protein kinase 12 (Homo sapiens) (UniProt P53778);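 note: values are averaged p38gamma kinase inhibition readings, compounds tested at 1 µM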
- Sequence (whole entry): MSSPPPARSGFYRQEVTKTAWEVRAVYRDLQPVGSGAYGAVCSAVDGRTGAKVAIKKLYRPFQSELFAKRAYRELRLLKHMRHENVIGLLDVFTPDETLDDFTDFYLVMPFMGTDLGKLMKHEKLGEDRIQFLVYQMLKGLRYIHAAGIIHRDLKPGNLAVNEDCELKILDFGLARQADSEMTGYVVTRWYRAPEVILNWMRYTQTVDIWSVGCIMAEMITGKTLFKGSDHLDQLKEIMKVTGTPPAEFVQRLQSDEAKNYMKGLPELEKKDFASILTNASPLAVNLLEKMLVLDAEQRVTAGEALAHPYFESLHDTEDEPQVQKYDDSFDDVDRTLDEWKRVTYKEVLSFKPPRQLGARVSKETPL
- TEST_CONDITIONS: at 1 µM
ATTRIBUTE_MEASURED: inhibition (%)
Kindly answer with a numeric value in %, unit omitted.

Cc1ccc2c(-c3ccnc(Nc4ccc5c(c4)OCCO5)n3)c(-c3ccc(C(F)(F)F)cc3)nn2n1 ... 0.43

Sure, the documented inhibition for ON=C1CCc2cc(-c3nc(C4CCNCC4)[nH]c3-c3ccncc3)ccc21 is 1

Sure, the documented inhibition for Nc1ccc(C#Cc2cncnc2Nc2ccc(OCc3cccc(F)c3)c(Cl)c2)cc1 is 2.1

Sure, the documented inhibition for Nc1nccc(-c2c(-c3ccc(F)cc3)ncn2CCCN2CCOCC2)n1 is 3.58

Sure, the documented inhibition for Cc1ccc(C(=O)NC2CC2)cc1-c1ccc2[nH]ncc2c1 is -1.96

Sure, the documented inhibition for CCOc1nccc2c1nc(-c1nonc1N)n2CC is 3.14

Sure, the documented inhibition for c1ccc(Cc2nc3ccc(Nc4ncnc5ccccc45)cc3[nH]2)cc1 is 0.6

Sure, the documented inhibition for COC(=O)c1cncc(/C=C/c2c(C)cc(O)cc2C)c1 is 1.22

Sure, the documented inhibition for NS(=O)(=O)c1ccc(-c2cc3ccncc3cc2OCc2ccccc2)cc1 is 2.36

Sure, the documented inhibition for CCCN1CCCC(c2ccc(Nc3nc(Nc4cc(F)ccc4C(N)=O)c4cc[nH]c4n3)c(OC)c2)C1 (stereo not given) is 3.39

----------
- SYSTEM_NAME: Ribosomal protein S6 kinase alpha-1 (Homo sapiens) (UniProt Q15418);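 note: mean inhibition of RSK1, reported in the GSK PKIS screen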
- Sequence (Q15418 whole entry): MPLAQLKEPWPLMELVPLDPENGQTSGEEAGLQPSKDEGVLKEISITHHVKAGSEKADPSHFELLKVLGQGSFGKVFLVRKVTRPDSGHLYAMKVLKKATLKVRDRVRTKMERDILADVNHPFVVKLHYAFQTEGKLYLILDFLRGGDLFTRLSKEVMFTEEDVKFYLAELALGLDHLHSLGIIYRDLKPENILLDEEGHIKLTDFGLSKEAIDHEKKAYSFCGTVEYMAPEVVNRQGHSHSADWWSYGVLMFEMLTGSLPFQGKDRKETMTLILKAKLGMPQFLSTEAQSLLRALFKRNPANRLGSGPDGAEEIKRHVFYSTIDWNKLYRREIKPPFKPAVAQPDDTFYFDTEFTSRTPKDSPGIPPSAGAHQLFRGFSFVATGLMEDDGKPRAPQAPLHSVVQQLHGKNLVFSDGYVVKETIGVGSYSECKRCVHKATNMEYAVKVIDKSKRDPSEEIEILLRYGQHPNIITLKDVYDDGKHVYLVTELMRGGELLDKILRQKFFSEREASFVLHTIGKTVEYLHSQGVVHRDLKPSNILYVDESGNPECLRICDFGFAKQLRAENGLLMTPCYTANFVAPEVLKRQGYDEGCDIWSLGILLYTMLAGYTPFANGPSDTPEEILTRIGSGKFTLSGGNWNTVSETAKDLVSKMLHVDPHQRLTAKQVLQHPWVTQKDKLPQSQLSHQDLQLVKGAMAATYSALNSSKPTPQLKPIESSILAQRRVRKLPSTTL
- TEST_CONDITIONS: at 1 µM
ATTRIBUTE_MEASURED: inhibition (%)
Kindly answer with a numeric value in %, unit omitted.

// below: answered compounds
ON=C1CCc2cc(-c3nc(C4CCNCC4)[nH]c3-c3ccncc3)ccc21 ... -1.99
NS(=O)(=O)c1cccc(Nc2cc(-c3ccc(F)cc3)n[nH]2)c1 ... 7.2
CS(=O)(=O)CCNCc1nc(-c2ccc3ncnc(Nc4ccc(OCc5cccc(C(F)(F)F)c5)cc4)c3c2)cs1 ... 0.29

Sure, the documented inhibition for Nc1ccc(C#Cc2cncnc2Nc2ccc(OCc3cccc(F)c3)c(Cl)c2)cc1 is 1.59

Sure, the documented inhibition for Nc1nccc(-c2c(-c3ccc(F)cc3)ncn2CCCN2CCOCC2)n1 is 4.6

----------
- SYSTEM_NAME: Fibroblast growth factor receptor 1 (Homo sapiens);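 note: values are reported as mean percent inhibition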
- TEST_CONDITIONS: at 0.1 µM
Entries and their measured inhibition follow.
Kindly answer with a numeric value in %, unit omitted.

Cc1ccc(O)cc1Nc1ccnc2ccc(S(C)(=O)=O)cc12 ... 7.68

Kindly review the next molecule as well.
Sure, the documented inhibition for CN1CCN(C(=O)c2ccc(NC(=O)Nc3ccc(N(C)c4ccnc(Nc5ccc(CS(C)(=O)=O)cc5)n4)cc3)cc2)CC1 is 0.94

----------
- SYSTEM_NAME: Ephrin type-A receptor 3 (Homo sapiens);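 note: values are mean inhibition of EPHA3, from the GSK PKIS dataset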
- TEST_CONDITIONS: at 0.1 µM
ATTRIBUTE_MEASURED: inhibition (%)
Kindly answer with a numeric value in %, unit omitted.

// below: answered compounds
CCS(=O)(=O)c1ccc(OC)c(Nc2nccc(N(C)c3ccc4c(C)n[nH]c4c3)n2)c1 ... 4.4
Nc1nccc(C#Cc2cncnc2Nc2ccc(OCc3cccc(F)c3)c(Cl)c2)n1 ... 1.8
CCn1c(-c2nonc2N)nc2ccc(F)cc21 ... 4.17
C[C@@H](Oc1cc(-n2cnc3ccc(OCC4CCN(C)CC4)cc32)sc1C(N)=O)c1ccccc1C(F)(F)F ... -6.9
CN(C)C(=O)O[C@@H]1CN[C@@H](C#Cc2cc3ncnc(Nc4ccc(OCc5cccc(F)c5)c(Cl)c4)c3s2)C1 ... 5.64
O=C1Nc2ccccc2/C1=C/Nc1ccc2[nH]c(=O)[nH]c2c1 ... 5.7
[O-][S+]1CCN(Cc2ccc(-c3ccc4ncnc(Nc5ccc(OCc6ccccc6)c(Cl)c5)c4c3)o2)CC1 ... -1.64
CCn1c(-c2nonc2N)nc2c(C#CC(C)(C)O)nc(OCCNC)cc21 ... 1.69

Kindly review the next compound as well.
Sure, the documented inhibition for Cc1cc(Cl)cc2c1NC(=O)C2=NNc1ccc(S(N)(=O)=O)cc1 is 3.32

All values here come from ChEMBL document CHEMBL1961873.
